# Tested on: SK-MEL-28 melanoma
# Method description: NCI tumour cell line growth inhibition, 48 h
Recorded TGI for the following compounds

The reported SK-MEL-28 melanoma TGI of "O=c1[nH]c(=S)c2cc3c(=S)[nH]c(=O)n(CCO)c3nc2n1CCO" is > 100 µM

The reported SK-MEL-28 melanoma TGI of "O=c1oc2c(C(F)(F)F)cccc2cc1-c1csc(Nc2ccc(OCCF)cc2)n1" is > 66.4 µM

The reported SK-MEL-28 melanoma TGI of "C=CC(C)(C)C(=C)C(=O)Nc1ccccc1I" is > 100 µM

The reported SK-MEL-28 melanoma TGI of NC1CC=C(COC(=O)C(O)(c2ccccc2)C2CC2)CC1 (stereo unspecified) is > 100 µM

The reported SK-MEL-28 melanoma TGI of "CC(=C/c1ccccc1)/C=C1/NC(=S)N(/C=C2\C(=O)Oc3ccccc3C2=O)C1=O" is > 100 µM

The reported SK-MEL-28 melanoma TGI of "CCCCNC(=O)/N=C/c1c(O)c2ccccc2oc1=O" is > 100 µM

Measured values drawn from PubChem BioAssay (NCI) for this set.
